# assayComment: storage stability of the radioligand in solution
# Assay type: physicochemical
# runConditions: trace hcl; stored at -20° C. as a solution in 15% methanol/water containing a trace of hydrochloric acid; read-out: stability, loss of radiochemical purity
reportedEndpoint: degraded at 730 h

* CC(C)(N)C(=O)N[C@H](COCc1ccccc1)C(=O)N1CCC2(CC1)CN([35S](C)(=O)=O)c1ccccc12 [[^35 S]-radioligand] | < 0.5%
